These measurements were taken from patent US20130197071A1.

- Measurement target: soybean LOX-1 (Lipoxygenase-1, 15-Lipoxygenase) (Glycine max)
- Construct: purchased Cayman Chemical #60712
- Assay explanation: Soybean lipoxygenase-1 (LOX-1) inhibition assay, spectrophotometric at 234 nm, linoleic acid substrate
- Format: biochemical
- Run parameters: soybean LOX-1, linoleic acid, 0.2 M borate buffer pH 9.0, 1% DMSO, 234 nm; read-out: Lipoxygenase-1 Inhibitory Activity IC50 (μM) ± s.d.
For each of the compounds below, state its IC50.
One number for each entry, in µM.

Study these solved cases before continuing.
Compound	IC50, µM
CC[C@H](C)/C=C(C)/C=C/C1=CC2=C(I)C(=O)C(C)(OC(C)=O)C(=O)C2=CO1 (some centres unmarked)	17.4
CC[C@H](C)/C=C(C)/C=C/C1=CC2=C(Br)C(=O)C(C)(O)C(=O)C2=CO1 (some centres unmarked)	3.2
CC[C@H](C)/C=C(C)/C=C/C(=O)Cc1cc(O)c(C)c(O)c1C=O (stereo in doubt)	97.2

q: Look up and state reported IC50 for CC[C@H](C)/C=C(C)/C=C/C1=CC2=C(Br)C(=O)C(C)(OC(C)=O)C(=O)C2=CO1 (some centres unmarked)
a: 6.8

###

- Measurement target: soybean LOX-1 (Lipoxygenase-1, 15-Lipoxygenase) (Glycine max, UniProt P08170)
- Construct: purchased Cayman Chemical #60712
- Sequence (P08170 whole entry): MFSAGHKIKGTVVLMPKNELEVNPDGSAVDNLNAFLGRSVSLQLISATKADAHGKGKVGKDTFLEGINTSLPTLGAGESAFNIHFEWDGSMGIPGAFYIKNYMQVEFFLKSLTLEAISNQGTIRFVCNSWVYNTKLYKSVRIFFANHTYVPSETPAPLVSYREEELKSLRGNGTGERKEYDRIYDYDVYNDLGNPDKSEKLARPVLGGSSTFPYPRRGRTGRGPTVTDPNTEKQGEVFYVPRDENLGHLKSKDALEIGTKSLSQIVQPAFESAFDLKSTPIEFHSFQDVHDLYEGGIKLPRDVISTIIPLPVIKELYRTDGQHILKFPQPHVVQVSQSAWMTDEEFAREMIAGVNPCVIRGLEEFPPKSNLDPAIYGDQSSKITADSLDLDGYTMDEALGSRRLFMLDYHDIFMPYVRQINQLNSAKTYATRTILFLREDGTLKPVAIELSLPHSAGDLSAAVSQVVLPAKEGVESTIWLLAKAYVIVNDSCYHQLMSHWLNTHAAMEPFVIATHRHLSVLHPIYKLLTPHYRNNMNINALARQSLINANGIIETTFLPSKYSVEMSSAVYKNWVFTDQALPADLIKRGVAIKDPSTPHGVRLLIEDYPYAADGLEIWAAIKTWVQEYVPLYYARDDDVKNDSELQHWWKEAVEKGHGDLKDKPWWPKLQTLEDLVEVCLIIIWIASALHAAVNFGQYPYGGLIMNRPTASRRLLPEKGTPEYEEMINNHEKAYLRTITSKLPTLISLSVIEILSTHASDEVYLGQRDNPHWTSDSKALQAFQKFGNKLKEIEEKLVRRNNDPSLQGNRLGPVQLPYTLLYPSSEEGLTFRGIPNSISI
- Assay explanation: Soybean lipoxygenase-1 (LOX-1) inhibition assay, spectrophotometric at 234 nm, linoleic acid substrate
- Assay type: biochemical
- Run parameters: soybean LOX-1, linoleic acid, 0.2 M borate buffer pH 9.0, 1% DMSO, 234 nm; read-out: Lipoxygenase-1 Inhibitory Activity IC50 (μM) ± s.d.
Measured attribute: IC50 (µM)
Give bare numbers, in µM.

Study these solved cases before continuing.
Molecule	Measurement target	Unit name	IC50
CC[C@H](C)/C=C(C)/C=C/C1=CC2=CC(=O)C(C)(OC(C)=O)C(=O)C2=CO1 (stereo partly shown)	soybean LOX-1 (Lipoxygenase-1, 15-Lipoxygenase) (Glycine max, UniProt P08170)	µM	4.9
CC[C@H](C)/C=C(C)/C=C/C1=CC2=C(I)C(=O)C(C)(O)C(=O)C2=CO1 (stereo partly shown)	soybean LOX-1 (Lipoxygenase-1, 15-Lipoxygenase) (Glycine max, UniProt P08170)	µM	19.6
CC[C@H](C)/C=C(C)/C=C/C1=CC2=C(Cl)C(=O)C(C)(OC(C)=O)C(=O)C2=CO1 (stereo partly shown)	soybean LOX-1 (Lipoxygenase-1, 15-Lipoxygenase) (Glycine max, UniProt P08170)	µM	2.3
CC[C@H](C)/C=C(C)/C=C/C1=CC2=CC(=O)C(C)(O)C(=O)C2=CO1 (stereo partly shown)	soybean LOX-1 (Lipoxygenase-1, 15-Lipoxygenase) (Glycine max, UniProt P08170)	µM	10.7

Next up:
q: Look up and state reported IC50 for CC[C@H](C)/C=C(C)/C=C/C1=CC2=C(Cl)C(=O)[C@](C)(OC(C)=O)C(=O)C2=CO1 [Compound 1, (+)-sclerotiorin, reference compound]
a: 7.8
